These entries and their values trace back to the supplement of paper PMC10307832.

System: PC-14
Assay method text: relative viability (nuclei count vs DMSO), 5 days (fraction); higher = more cells survive
Test context: first compound 0.001 µM
Measured endpoint: relative viability

>  <Compound>
Cc1cn(-c2cc(NC(=O)c3ccc(C)c(Nc4nccc(-c5cccnc5)n4)c3)cc(C(F)(F)F)c2)cn1 [Nilotinib] + C[C@@H](Oc1cc(-c2cnn(C3CCNCC3)c2)cnc1N)c1c(Cl)ccc(F)c1Cl [Crizotinib] (partner 1 µM)

>  <Measured endpoint>
relative viability

>  <Readout value>
0.871

$$$$
>  <Compound>
Cc1cn(-c2cc(NC(=O)c3ccc(C)c(Nc4nccc(-c5cccnc5)n4)c3)cc(C(F)(F)F)c2)cn1 [Nilotinib] + CCNC(=O)c1noc(-c2cc(C(C)C)c(O)cc2O)c1-c1ccc(CN2CCOCC2)cc1 [Luminespib] (partner 0.01 µM)

>  <Measured endpoint>
relative viability

>  <Readout value>
0.168

$$$$
>  <Compound>
Cc1cn(-c2cc(NC(=O)c3ccc(C)c(Nc4nccc(-c5cccnc5)n4)c3)cc(C(F)(F)F)c2)cn1 [Nilotinib] + Cc1cc(Nc2cc(N3CCN(C)CC3)nc(Sc3ccc(NC(=O)C4CC4)cc3)n2)n[nH]1 [Tozasertib] (partner 0.1 µM)

>  <Measured endpoint>
relative viability

>  <Readout value>
0.682

$$$$
>  <Compound>
Cc1cn(-c2cc(NC(=O)c3ccc(C)c(Nc4nccc(-c5cccnc5)n4)c3)cc(C(F)(F)F)c2)cn1 [Nilotinib] + Cc1nc(Nc2ncc(C(=O)Nc3c(C)cccc3Cl)s2)cc(N2CCN(CCO)CC2)n1 [Dasatinib] (partner 0.075 µM)

>  <Measured endpoint>
relative viability

>  <Readout value>
0.226

$$$$
>  <Compound>
Cc1cn(-c2cc(NC(=O)c3ccc(C)c(Nc4nccc(-c5cccnc5)n4)c3)cc(C(F)(F)F)c2)cn1 [Nilotinib] + Nc1ncn([C@H]2C[C@H](O)[C@@H](CO)O2)c(=O)n1 [Decitabine] (partner 2 µM)

>  <Measured endpoint>
relative viability

>  <Readout value>
0.24

$$$$
>  <Compound>
Cc1cn(-c2cc(NC(=O)c3ccc(C)c(Nc4nccc(-c5cccnc5)n4)c3)cc(C(F)(F)F)c2)cn1 [Nilotinib] + Nc1nc2[nH]cc(CCc3ccc(C(=O)N[C@@H](CCC(=O)O)C(=O)O)cc3)c2c(=O)[nH]1 [Pemetrexed] (partner 0.2 µM)

>  <Measured endpoint>
relative viability

>  <Readout value>
0.139

$$$$
>  <Compound>
Cc1cn(-c2cc(NC(=O)c3ccc(C)c(Nc4nccc(-c5cccnc5)n4)c3)cc(C(F)(F)F)c2)cn1 [Nilotinib] + CS(=O)(=O)CCNCc1ccc(-c2ccc3ncnc(Nc4ccc(OCc5cccc(F)c5)c(Cl)c4)c3c2)o1 [Lapatinib] (partner 2 µM)

>  <Measured endpoint>
relative viability

>  <Readout value>
0.328

$$$$

###

Test system: LC-2-ad
Assay method text: relative viability (nuclei count vs DMSO), 5 days (fraction); higher = more cells survive
Test context: first compound 0.001 µM

>  <Compound>
Cc1cn(-c2cc(NC(=O)c3ccc(C)c(Nc4nccc(-c5cccnc5)n4)c3)cc(C(F)(F)F)c2)cn1 [Nilotinib] + CC(C)C[C@H](NC(=O)[C@H](Cc1ccccc1)NC(=O)c1cnccn1)B(O)O [Bortezomib] (partner 0.002 µM)

>  <relative viability>
0.914

$$$$
>  <Compound>
Cc1cn(-c2cc(NC(=O)c3ccc(C)c(Nc4nccc(-c5cccnc5)n4)c3)cc(C(F)(F)F)c2)cn1 [Nilotinib] + O=C(CCCCCCC(=O)Nc1ccccc1)NO [Vorinostat] (partner 1 µM)

>  <relative viability>
0.644

$$$$

###

Entries and their measured relative viability follow.
Test system: NCI-H1975
Assay method text: relative viability (nuclei count vs DMSO), 5 days (fraction); higher = more cells survive
Test context: first compound 0.253 µM

>  <Molecule>
Nc1cccc2c1CN(C1CCC(=O)NC1=O)C2=O (stereo unspecified) [Lenalidomide] + COc1cccc2cc(-c3nc([C@H]4CC[C@H](C(=O)O)CC4)n4ncnc(N)c34)[nH]c12 [OSI-027] (partner 0.5 µM)

>  <relative viability>
0.817

$$$$
>  <Molecule>
Nc1cccc2c1CN(C1CCC(=O)NC1=O)C2=O (stereo unspecified) [Lenalidomide] + CC(=O)c1c(C)c2cnc(Nc3ccc(N4CCNCC4)cn3)nc2n(C2CCCC2)c1=O [Palbociclib] (partner 0.5 µM)

>  <relative viability>
0.591

$$$$
>  <Molecule>
Nc1cccc2c1CN(C1CCC(=O)NC1=O)C2=O (stereo unspecified) [Lenalidomide] + C[C@]1(O)C[C@@H](c2nc(-c3ccc4ccc(-c5ccccc5)nc4c3)c3c(N)nccn32)C1 [Linsitinib] (partner 1 µM)

>  <relative viability>
1.15

$$$$
>  <Molecule>
Nc1cccc2c1CN(C1CCC(=O)NC1=O)C2=O (stereo unspecified) [Lenalidomide] + CS(=O)(=O)CCNCc1ccc(-c2ccc3ncnc(Nc4ccc(OCc5cccc(F)c5)c(Cl)c4)c3c2)o1 [Lapatinib] (partner 2 µM)

>  <relative viability>
0.897

$$$$
>  <Molecule>
Nc1cccc2c1CN(C1CCC(=O)NC1=O)C2=O (stereo unspecified) [Lenalidomide] + N=C(N)NC(=N)NCCc1ccccc1 [Phenformin] (partner 250 µM)

>  <relative viability>
0.402

$$$$
>  <Molecule>
Nc1cccc2c1CN(C1CCC(=O)NC1=O)C2=O (stereo unspecified) [Lenalidomide] + O=C(CCCCCCC(=O)Nc1ccccc1)NO [Vorinostat] (partner 1 µM)

>  <relative viability>
0.72

$$$$

###

Test system: NCI-H1355
Assay method text: relative viability (nuclei count vs DMSO), 5 days (fraction); higher = more cells survive
Test context: first compound 0.03162 µM

>  <Compound>
Cc1cn(-c2cc(NC(=O)c3ccc(C)c(Nc4nccc(-c5cccnc5)n4)c3)cc(C(F)(F)F)c2)cn1 [Nilotinib] + Cc1cc(Nc2cc(N3CCN(C)CC3)nc(Sc3ccc(NC(=O)C4CC4)cc3)n2)n[nH]1 [Tozasertib] (partner 0.1 µM)

>  <relative viability>
0.343

$$$$
>  <Compound>
Cc1cn(-c2cc(NC(=O)c3ccc(C)c(Nc4nccc(-c5cccnc5)n4)c3)cc(C(F)(F)F)c2)cn1 [Nilotinib] + C[C@@H](Oc1cc(-c2cnn(C3CCNCC3)c2)cnc1N)c1c(Cl)ccc(F)c1Cl [Crizotinib] (partner 1 µM)

>  <relative viability>
0.909

$$$$
>  <Compound>
Cc1cn(-c2cc(NC(=O)c3ccc(C)c(Nc4nccc(-c5cccnc5)n4)c3)cc(C(F)(F)F)c2)cn1 [Nilotinib] + NC(=O)Nc1cc(-c2cccc(F)c2)sc1C(=O)N[C@H]1CCCNC1 [AZD7762] (partner 0.2 µM)

>  <relative viability>
0.439

$$$$
>  <Compound>
Cc1cn(-c2cc(NC(=O)c3ccc(C)c(Nc4nccc(-c5cccnc5)n4)c3)cc(C(F)(F)F)c2)cn1 [Nilotinib] + CS(=O)(=O)CCNCc1ccc(-c2ccc3ncnc(Nc4ccc(OCc5cccc(F)c5)c(Cl)c4)c3c2)o1 [Lapatinib] (partner 2 µM)

>  <relative viability>
1.12

$$$$
>  <Compound>
Cc1cn(-c2cc(NC(=O)c3ccc(C)c(Nc4nccc(-c5cccnc5)n4)c3)cc(C(F)(F)F)c2)cn1 [Nilotinib] + CC(=O)Nc1cccc(-n2c(=O)n(C3CC3)c(=O)c3c(Nc4ccc(I)cc4F)n(C)c(=O)c(C)c32)c1 [Trametinib] (partner 0.02 µM)

>  <relative viability>
0.356

$$$$

###

Tested on: NCI-H1666
Assay method text: relative viability (nuclei count vs DMSO), 5 days (fraction); higher = more cells survive
Test context: first compound 0.2 µM
relative viability under 0.9 gets Yes, anything at or over 0.9 gets No.

>  <Compound>
CCNC(=O)c1noc(-c2cc(C(C)C)c(O)cc2O)c1-c1ccc(CN2CCOCC2)cc1 [Luminespib] + Cc1cc(Nc2cc(N3CCN(C)CC3)nc(Sc3ccc(NC(=O)C4CC4)cc3)n2)n[nH]1 [Tozasertib] (partner 0.1 µM)

>  <Experimental system>
NCI-H1666

>  <Assigned label>
Yes

$$$$
>  <Compound>
Cc1csc(=NC2CCCCC2)n1/N=C/c1ccc(O)c(O)c1O [MIM1] + CC(=O)Nc1cccc(-n2c(=O)n(C3CC3)c(=O)c3c(Nc4ccc(I)cc4F)n(C)c(=O)c(C)c32)c1 [Trametinib] (partner 0.02 µM)

>  <Experimental system>
NCI-H1666

>  <Assigned label>
No

$$$$
>  <Compound>
CCNC(=O)c1noc(-c2cc(C(C)C)c(O)cc2O)c1-c1ccc(CN2CCOCC2)cc1 [Luminespib] + C[C@]1(O)C[C@@H](c2nc(-c3ccc4ccc(-c5ccccc5)nc4c3)c3c(N)nccn32)C1 [Linsitinib] (partner 1 µM)

>  <Experimental system>
NCI-H1666

>  <Assigned label>
Yes

$$$$
>  <Compound>
CN1CCN(CCOc2cc(OC3CCOCC3)c3c(Nc4c(Cl)ccc5c4OCO5)ncnc3c2)CC1 [Saracatinib] + O=C(c1cc(Cc2n[nH]c(=O)c3ccccc23)ccc1F)N1CCN(C(=O)C2CC2)CC1 [Olaparib] (partner 8 µM)

>  <Experimental system>
NCI-H1666

>  <Assigned label>
Yes

$$$$
>  <Compound>
Cc1csc(=NC2CCCCC2)n1/N=C/c1ccc(O)c(O)c1O [MIM1] + COc1cc2c(Oc3ccc(NC(=O)C4(C(=O)Nc5ccc(F)cc5)CC4)cc3F)ccnc2cc1OCCCN1CCOCC1 [Foretinib] (partner 0.25 µM)

>  <Experimental system>
NCI-H1666

>  <Assigned label>
No

$$$$
>  <Compound>
CCNC(=O)c1noc(-c2cc(C(C)C)c(O)cc2O)c1-c1ccc(CN2CCOCC2)cc1 [Luminespib] + COc1cc2c(Oc3ccc(NC(=O)C4(C(=O)Nc5ccc(F)cc5)CC4)cc3F)ccnc2cc1OCCCN1CCOCC1 [Foretinib] (partner 0.25 µM)

>  <Experimental system>
NCI-H1666

>  <Assigned label>
No

$$$$
>  <Compound>
CN1CCN(CCOc2cc(OC3CCOCC3)c3c(Nc4c(Cl)ccc5c4OCO5)ncnc3c2)CC1 [Saracatinib] + Cc1nc(NC(=O)N2CCC[C@H]2C(N)=O)sc1-c1ccnc(C(C)(C)C(F)(F)F)c1 [Alpelisib] (partner 2 µM)

>  <Experimental system>
NCI-H1666

>  <Assigned label>
No

$$$$
>  <Compound>
CN1CCN(CCOc2cc(OC3CCOCC3)c3c(Nc4c(Cl)ccc5c4OCO5)ncnc3c2)CC1 [Saracatinib] + NC(=O)Nc1cc(-c2cccc(F)c2)sc1C(=O)N[C@H]1CCCNC1 [AZD7762] (partner 0.2 µM)

>  <Experimental system>
NCI-H1666

>  <Assigned label>
Yes

$$$$
>  <Compound>
CCNC(=O)c1noc(-c2cc(C(C)C)c(O)cc2O)c1-c1ccc(CN2CCOCC2)cc1 [Luminespib] + C[C@@H](Oc1cc(-c2cnn(C3CCNCC3)c2)cnc1N)c1c(Cl)ccc(F)c1Cl [Crizotinib] (partner 1 µM)

>  <Experimental system>
NCI-H1666

>  <Assigned label>
Yes

$$$$
>  <Compound>
Cc1csc(=NC2CCCCC2)n1/N=C/c1ccc(O)c(O)c1O [MIM1] + Cc1cc(Nc2cc(N3CCN(C)CC3)nc(Sc3ccc(NC(=O)C4CC4)cc3)n2)n[nH]1 [Tozasertib] (partner 0.1 µM)

>  <Experimental system>
NCI-H1666

>  <Assigned label>
Yes

$$$$
>  <Compound>
CCNC(=O)c1noc(-c2cc(C(C)C)c(O)cc2O)c1-c1ccc(CN2CCOCC2)cc1 [Luminespib] + CC1(C)CCC(c2ccc(Cl)cc2)=C(CN2CCN(c3ccc(C(=O)NS(=O)(=O)c4ccc(N[C@H](CCN5CCOCC5)CSc5ccccc5)c(S(=O)(=O)C(F)(F)F)c4)cc3)CC2)C1 [Navitoclax] (partner 0.5 µM)

>  <Experimental system>
NCI-H1666

>  <Assigned label>
Yes

$$$$
>  <Compound>
CCNC(=O)c1noc(-c2cc(C(C)C)c(O)cc2O)c1-c1ccc(CN2CCOCC2)cc1 [Luminespib] + O=C(c1cc(Cc2n[nH]c(=O)c3ccccc23)ccc1F)N1CCN(C(=O)C2CC2)CC1 [Olaparib] (partner 8 µM)

>  <Experimental system>
NCI-H1666

>  <Assigned label>
Yes

$$$$
>  <Compound>
Cc1csc(=NC2CCCCC2)n1/N=C/c1ccc(O)c(O)c1O [MIM1] + NC(=O)Nc1cc(-c2cccc(F)c2)sc1C(=O)N[C@H]1CCCNC1 [AZD7762] (partner 0.2 µM)

>  <Experimental system>
NCI-H1666

>  <Assigned label>
Yes

$$$$
>  <Compound>
CCNC(=O)c1noc(-c2cc(C(C)C)c(O)cc2O)c1-c1ccc(CN2CCOCC2)cc1 [Luminespib] + CC(=O)Nc1cccc(-n2c(=O)n(C3CC3)c(=O)c3c(Nc4ccc(I)cc4F)n(C)c(=O)c(C)c32)c1 [Trametinib] (partner 0.02 µM)

>  <Experimental system>
NCI-H1666

>  <Assigned label>
No

$$$$
